TESTED SYSTEM: Cbl-b (Homo sapiens (Human), UniProt Q13191)
Sequence (Q13191 40-426): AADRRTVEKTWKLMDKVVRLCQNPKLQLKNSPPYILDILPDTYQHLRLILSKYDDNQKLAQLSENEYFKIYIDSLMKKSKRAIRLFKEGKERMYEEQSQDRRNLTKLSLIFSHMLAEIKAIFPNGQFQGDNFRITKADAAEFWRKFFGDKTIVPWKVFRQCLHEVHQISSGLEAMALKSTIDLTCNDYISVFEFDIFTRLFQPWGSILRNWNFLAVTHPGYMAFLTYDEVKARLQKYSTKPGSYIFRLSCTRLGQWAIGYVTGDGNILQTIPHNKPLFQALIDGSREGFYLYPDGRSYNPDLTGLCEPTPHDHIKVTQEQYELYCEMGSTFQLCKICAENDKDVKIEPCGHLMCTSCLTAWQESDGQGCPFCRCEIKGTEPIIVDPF
ASSAY OVERVIEW: Cbl-b LCK Ub TR-FRET assay (Cbl-b Lck HTRF)
Format: biochemical
TEST PARAMETERS: ratio C-cbl Lck HTRF IC50 / Cbl-b Lck HTRF IC50
READOUT NAME: fold-selectivity (Cbl-b over C-cbl) (x)

Record excerpt, results attached:
COMPOUND	MEASURE UNIT	fold-selectivity (Cbl-b over C-cbl)
Cc1cnnn1[C@H](c1cccc(N2Cc3c(cc(CNC4(C)CCC4)cc3C(F)(F)F)C2=O)c1)C1COC1 (single isomer, unassigned)	x	1.0
Cn1cnnc1[C@](F)(c1ccccc1)c1cccc(N2Cc3c(cc(CNC4(C)CCC4)cc3C(F)(F)F)C2=O)c1 (single isomer, unassigned)	x	2.4
Cn1cnnc1[C@@H](c1cccc(N2Cc3c(cc(CNC4(C)CCC4)cc3C(F)(F)F)C2=O)c1)C1CCOCC1	x	1.5
CC(=O)C1CC([C@@H](c2cccc(N3Cc4c(cc(CNC5(C)CCC5)cc4C(F)(F)F)C3=O)c2)c2nncn2C)C1 (single isomer, unassigned) [Compound 383]	x	1.3
Cn1cnnc1[C@@](O)(c1ccccc1)c1cccc(N2Cc3c(cc(CNC4(C)CCC4)cc3C(F)(F)F)C2=O)c1 (single isomer, unassigned)	x	2.0
Cn1cnnc1[C@@H](c1ccccc1)c1cccc(N2Cc3c(Cl)cc(CNC4(C)CCC4)cc3C2=O)c1 (single isomer, unassigned)	x	1.0
Cn1cnnc1C(c1cccc(N2Cc3c(cc(CNC4(C)CCC4)cc3C(F)(F)F)C2=O)c1)[C@H]1C[C@H](CC#N)C1 (single isomer, unassigned) [Compound 364]	x	1.3
Cn1cnnc1[C@H](CC1CCS(=O)(=O)CC1)c1cccc(N2Cc3c(cc(CNC4(C)CCC4)cc3C(F)(F)F)C2=O)c1	x	1.0

(P) Cn1cnnc1[C@](O)(c1ccccc1)c1cccc(N2Cc3c(cc(CNC4(C)CCC4)cc3C(F)(F)F)C2=O)c1 (single isomer, unassigned)
(Q) COc1cc(N2Cc3c(cc(CNC4(C)CCC4)cc3C(F)(F)F)C2=O)cc([C@]2(c3nncn3C)C[C@H](OC)C2)c1
Ask: Parameter metric = fold-selectivity (Cbl-b over C-cbl). Return the lower-valued option from P and Q . I would appreciate it if you answered with the label of your choice.
Reply: P
(P: 1.0 x, Q: 1.5 x)

###

TESTED SYSTEM: Human Cbl-b (residues 40-426) (Homo sapiens (Human), UniProt Q13191)
ASSAY OVERVIEW: Cbl-b SPR assay
Assay type: binding
TEST PARAMETERS: C-cbl SPR Kd vs Cbl-b SPR Kd
READOUT NAME: Fold of selectivity (×)

Record excerpt, results attached:
>>> print(df.to_string())
                                   compound                             tested_system         readout_name  number
0  CO[C@H]1C[C@](c2cc(NC3CCCC3)cc(N3Cc4c(cc(CNC5(C)CCC5)cc4C(F)(F)F)C3=O)c2)(c2nncn2C)C1  Human Cbl-b (residues 40-426) (Homo sapiens (Human), UniProt Q13191)  Fold of selectivity      12
1  C[C@H](NC1(C)CCC1)c1cc2c(c(C(F)F)c1)CN(c1cccc([C@H](c3nncn3C)C3COC3)c1)C2=O (single isomer, unassigned)  Human Cbl-b (residues 40-426) (Homo sapiens (Human), UniProt Q13191)  Fold of selectivity     5.3
2  CO[C@H]1C[C@](c2cccc(N3Cc4c(cc(CNC5(C)CC(F)(F)C5)cc4C(F)(F)F)C3=O)c2)(c2nncn2C)C1  Human Cbl-b (residues 40-426) (Homo sapiens (Human), UniProt Q13191)  Fold of selectivity      11
3  CCNc1cc(N2Cc3c(cc(CNC4(C)CCC4)cc3C(F)(F)F)C2=O)cc([C@]2(c3nncn3C)C[C@@H](OC)C2)c1  Human Cbl-b (residues 40-426) (Homo sapiens (Human), UniProt Q13191)  Fold of selectivity     6.5

(I) Cn1cnnc1[C@]1(c2cccc(N3Cc4c(cc(CNC5(C)CCC5)cc4C(F)(F)F)C3=O)c2)C[C@H](OC(F)F)C1
(II) CO[C@H]1C[C@](c2cccc(N3Cc4c(cccc4C(F)(F)F)C3=O)c2)(c2nncn2C)C1
(III) Cn1cnnc1[C@H](c1cccc(N2Cc3c(cc(CNC4(C)CCC4)cc3C(F)(F)F)C2=O)c1)C1(O)COC1 (single isomer, unassigned)
Ask: hey, can you rank those compounds up there by Fold of selectivity? biggest number first please Answer format: the labels, ordered as requested.
Reply: I, III, II

###

TESTED SYSTEM: c-Cbl (residues 47-435) (Homo sapiens (Human))
Sequence (P22681 47-435): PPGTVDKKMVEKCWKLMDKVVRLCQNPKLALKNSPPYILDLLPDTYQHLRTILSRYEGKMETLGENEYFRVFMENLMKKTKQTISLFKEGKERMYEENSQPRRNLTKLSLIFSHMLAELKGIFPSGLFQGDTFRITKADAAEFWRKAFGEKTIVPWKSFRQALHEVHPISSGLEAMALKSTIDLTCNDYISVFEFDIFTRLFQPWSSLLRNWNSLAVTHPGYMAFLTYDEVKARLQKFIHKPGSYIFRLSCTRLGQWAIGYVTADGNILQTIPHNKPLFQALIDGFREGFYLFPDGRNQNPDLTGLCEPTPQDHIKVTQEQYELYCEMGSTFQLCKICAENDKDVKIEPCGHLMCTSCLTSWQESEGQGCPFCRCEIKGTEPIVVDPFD
READOUT NAME: Kd (µM)

(I) C[C@@H](c1cccc(N2Cc3c(cc(CNC4(C)CCC4)cc3C(F)(F)F)C2=O)c1)c1nncn1C (single isomer, unassigned)
(II) Cn1cnnc1[C@H](c1cccc(N2Cc3c(cc(CNC4(C)CCC4)cc3C(F)F)C2=O)c1)C1CC(F)C1 (stereo partly shown)
Ask: Parameter metric = Kd. Return the lower-valued option from I and II . I would appreciate it if you answered with the label of your choice.
Reply: I
(I: 1.7 µM, II: 3.4 µM)

(I) CCO[C@H]1C[C@](c2cccc(N3Cc4c(cc(CNC5(C)CCC5)cc4C(F)(F)F)C3=O)c2)(c2nncn2C)C1
(II) CO[C@H]1C[C@@](c2cc(NC3CCCC3)nc(N3Cc4c(cc(CNC5(C)CCC5)cc4C(F)(F)F)C3=O)c2)(c2nncn2C)C1 [Compound 69]
Ask: Parameter metric = Kd. Return the lower-valued option from I and II . I would appreciate it if you answered with the label of your choice.
Reply: II

###

TESTED SYSTEM: Cbl-b (Homo sapiens (Human))
ASSAY OVERVIEW: Cbl-b LCK Ub TR-FRET assay (Cbl-b Lck HTRF)
Type: biochemical
TEST PARAMETERS: ratio C-cbl Lck HTRF IC50 / Cbl-b Lck HTRF IC50
READOUT NAME: (fold-selectivity) Cbl-b and C-Cbl Selectivity (x)

In [3]: df
Out[3]:
                                   compound                 tested_system  measure_unit  number
0  C[C@@H](NC1(C)CCC1)c1cc2c(c(C(F)F)c1)CN(c1cccc([C@H](c3nncn3C)C3COC3)c1)C2=O (single isomer, unassigned) [Compound 412]  Cbl-b (Homo sapiens (Human))             x     4.2

(1) CO[C@H]1C[C@](c2cccc(N3Cc4c(cc(CNC5CC(C#N)C5)cc4C(F)(F)F)C3=O)c2)(c2nncn2C)C1 (stereo partly drawn) [Compound 505]
(2) CO[C@H]1C[C@](c2cccc(N3Cc4c(cc(CNCC5(F)CC5)cc4C(F)(F)F)C3=O)c2)(c2nncn2C)C1 [Compound 486]
Ask: Of the two listed items, 1 and 2 , which carries the larger (fold-selectivity) Cbl-b and C-Cbl Selectivity figure? I would appreciate it if you answered with the label of your choice.
Reply: 2
(2: 6.0 x, 1: 4.1 x)

###

TESTED SYSTEM: Cbl-b (Homo sapiens (Human))
ASSAY OVERVIEW: Cbl-b LCK Ub TR-FRET assay (Cbl-b Lck HTRF)
Assay type: biochemical
TEST PARAMETERS: Cbl-b LCK Ub TR-FRET
READOUT NAME: IC50 (nM)

(I) Cn1cnnc1[C@@H](c1cccc(N2Cc3c(cc(CNC4(C)CCC4)cc3C(F)(F)F)C2=O)c1)N1CC(F)(F)C1 (single isomer, unassigned)
(II) CO[C@H]1C[C@@](c2cc(N[C@@H](C)CC#N)cc(N3Cc4c(cc(CNC5(C)CCC5)cc4C(F)(F)F)C3=O)c2)(c2nncn2C)C1 (single isomer, unassigned)
(III) CO[C@H]1C[C@](c2cccc(N3Cc4c(cc([C@H](N)C(C)(C)C)cc4C(F)(F)F)C3=O)c2)(c2nncn2C)C1 (single isomer, unassigned)
(IV) Cn1cnnc1C1(c2cc(NC3CCCC3)nc(N3Cc4c(cc(CNC5(C)CCC5)cc4C(F)(F)F)C3=O)c2)CC2(COC2)C1
(V) Cn1cnnc1[C@]1(c2cc(NC3CC(F)(F)C3)nc(N3Cc4c(cc(CNC5(C)CCC5)cc4C(F)(F)F)C3=O)c2)C[C@@H](C)C1
Ask: Order the entries above by descending IC50. Answer format: the labels, ordered as requested.
Reply: I, III, II, IV, V
(I: 10000 nM, III: 92 nM, II: 40 nM, IV: 16 nM, V: 10 nM)

###

Entries with their measured Kd, system Human Cbl-b (residues 40-426) (Homo sapiens (Human)):
READOUT NAME: Kd (nM)

(P) CO[C@H]1C[C@](c2cccc(N3Cc4c(cc(CN5CCN(C)C[C@@H]5C(C)C)cc4C(F)(F)F)C3=O)c2)(c2nncn2C)C1
(Q) Cn1cnnc1C1(c2cccc(N3Cc4c(cc(CNC5(C)CCC5)cc4C(F)(F)F)C3=O)c2)CC2(C1)OCCO2
(R) Cn1cnnc1[C@@H](c1cccc(N2Cc3c(cc([C@@H](NC4(C)CCC4)C4CCC4)cc3C(F)(F)F)C2=O)c1)C1COC1 (single isomer, unassigned)
(S) C[C@H](NC1(C)CCC1)c1cc(Cl)c2c(c1)C(=O)N(c1cccc([C@]3(c4nncn4C)C[C@H](F)C3)c1)C2 (single isomer, unassigned)
Ask: Order the entries above by descending Kd. Answer format: the labels, ordered as requested.
Reply: Q, R, P, S
(Q: 53 nM, R: 8.5 nM, P: 3.5 nM, S: 2 nM)
